Species on record: Rattus norvegicus
assay: DrugMatrix - Regimen: Daily Repeat
Type: toxicity, organism-based, Sprague-Dawley
Parameters: regimen Daily Repeat, gender Male, age 6-8 weeks
setup-conditions: in vivo, po, 0 mg/kg, 72 h, tissue Plasma, route oral GAVAGE, dose level Control, time 3 day, […]

compound: Clc1ccc(Cl)cc1
LIPASE: 13.33 u/L
--
compound: CC/C(=C(/CC)c1ccc(O)cc1)c1ccc(O)cc1
LIPASE: 16.67 u/L
--
compound: CCCCCCCCc1ccc(O)cc1
LIPASE: 10.67 u/L
--
compound: O=C(O)Cc1ccccc1Nc1c(Cl)cccc1Cl
LIPASE: 11 u/L
--
compound: CCOC(=O)C(C)(C)Oc1ccc(Cl)cc1 [CLOFIBRATE]
LIPASE: 10 u/L
--
compound: Cc1cccc(Nc2ccncc2S(=O)(=O)NC(=O)NC(C)C)c1 [TORSEMIDE]
LIPASE: 11.83 u/L
